- TARGET_SYSTEM: T1, purified recombinant human α5β1 integrin heterodimer, 6×His tagged (rh-α5β1); Acro Biosystems, cat. no. … (human, UniProt P08648 42-995; P05556 21-728)
- T1 construct: bought recombinant heterodimer; also called rh-α5β1-6×His tagged protein; His-tagged-α5β1
- T1 sequence (P08648 42-995 limits assumed, form in doubt, chain 1 of 2): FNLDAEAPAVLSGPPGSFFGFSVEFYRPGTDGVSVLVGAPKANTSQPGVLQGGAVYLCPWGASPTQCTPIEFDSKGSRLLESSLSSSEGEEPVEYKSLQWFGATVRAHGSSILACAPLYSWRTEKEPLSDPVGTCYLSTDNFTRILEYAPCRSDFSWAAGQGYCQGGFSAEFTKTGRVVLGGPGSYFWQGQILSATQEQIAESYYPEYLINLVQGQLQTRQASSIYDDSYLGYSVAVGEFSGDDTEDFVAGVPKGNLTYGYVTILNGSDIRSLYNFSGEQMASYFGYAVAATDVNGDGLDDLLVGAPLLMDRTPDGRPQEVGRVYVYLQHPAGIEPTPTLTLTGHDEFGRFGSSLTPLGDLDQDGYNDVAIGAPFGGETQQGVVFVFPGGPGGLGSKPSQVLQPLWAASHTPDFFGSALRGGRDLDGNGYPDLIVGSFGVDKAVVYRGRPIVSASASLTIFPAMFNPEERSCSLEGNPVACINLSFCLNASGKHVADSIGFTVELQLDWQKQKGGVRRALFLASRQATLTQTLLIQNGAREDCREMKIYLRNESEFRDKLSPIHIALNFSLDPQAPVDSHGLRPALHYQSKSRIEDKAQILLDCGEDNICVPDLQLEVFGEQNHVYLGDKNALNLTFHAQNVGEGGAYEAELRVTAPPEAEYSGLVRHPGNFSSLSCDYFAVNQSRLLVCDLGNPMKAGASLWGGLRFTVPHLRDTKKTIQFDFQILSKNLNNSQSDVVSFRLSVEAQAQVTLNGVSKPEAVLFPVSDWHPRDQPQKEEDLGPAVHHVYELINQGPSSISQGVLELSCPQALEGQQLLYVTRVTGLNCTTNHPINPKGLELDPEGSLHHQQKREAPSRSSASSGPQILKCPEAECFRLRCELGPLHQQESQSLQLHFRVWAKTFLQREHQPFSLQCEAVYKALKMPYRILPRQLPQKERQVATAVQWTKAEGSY
- T1 sequence (P05556 21-728 limits assumed, form in doubt, chain 2 of 2): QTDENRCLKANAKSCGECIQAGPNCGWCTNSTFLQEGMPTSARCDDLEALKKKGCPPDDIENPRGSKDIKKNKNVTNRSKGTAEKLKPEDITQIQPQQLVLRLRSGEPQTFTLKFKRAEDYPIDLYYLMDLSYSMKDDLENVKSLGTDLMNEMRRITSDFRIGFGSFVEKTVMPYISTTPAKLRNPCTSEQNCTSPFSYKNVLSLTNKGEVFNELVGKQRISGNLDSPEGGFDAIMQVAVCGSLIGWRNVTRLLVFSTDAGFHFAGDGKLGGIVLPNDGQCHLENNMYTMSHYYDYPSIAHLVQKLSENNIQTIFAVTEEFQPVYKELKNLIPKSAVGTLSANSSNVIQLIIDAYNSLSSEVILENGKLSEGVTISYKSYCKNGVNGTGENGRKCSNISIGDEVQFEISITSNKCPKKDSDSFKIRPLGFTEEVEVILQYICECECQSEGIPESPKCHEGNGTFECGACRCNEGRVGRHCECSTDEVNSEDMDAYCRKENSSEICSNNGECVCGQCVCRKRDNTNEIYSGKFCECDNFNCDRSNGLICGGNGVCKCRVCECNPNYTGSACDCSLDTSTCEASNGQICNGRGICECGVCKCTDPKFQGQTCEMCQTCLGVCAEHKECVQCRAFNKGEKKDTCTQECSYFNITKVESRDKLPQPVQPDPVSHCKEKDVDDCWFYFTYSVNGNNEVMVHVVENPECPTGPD
- TEST_METHOD_NOTES: BLI (Octet), supernatant mAb on anti-mouse IgG Fc sensor, 20 nM rh-α5β1
OBSERVATION_TYPE: kon (M⁻¹ s⁻¹)
Numbers only; they are read as M⁻¹ s⁻¹.

Incoming: What value of kon has been reported for the following binder? A2-7F01 (antibody, V domains shown, mouse hybridoma antibody) VH: QVQLQQPGAELVKPGASVKLSCKASGYTFTIYWINWVKQRPGQGLEWIGNIYPGSSSTNYNEKFKTKATLTVDTSSSTAYMQLSSLTSDDSAVYYCAITGTGGFAYWGQGTLVTVSA VL: ENVLTQSPAIMSASLGEKVTMSCRASSSVNYMYWYQQKSDASPKLWIYFTSSLAPGVPTRFSGSGSGNSFSLTISSMEGEDAATYYCQQLTGSPFTFGSGTRLEIK
Outgoing: 242000

Incoming: Moving on to A-15H11 (antibody, V domains shown, mouse hybridoma antibody) VH: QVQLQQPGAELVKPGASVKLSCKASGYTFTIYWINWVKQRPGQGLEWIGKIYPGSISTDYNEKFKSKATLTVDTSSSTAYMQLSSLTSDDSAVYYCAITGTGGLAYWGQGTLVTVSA VL: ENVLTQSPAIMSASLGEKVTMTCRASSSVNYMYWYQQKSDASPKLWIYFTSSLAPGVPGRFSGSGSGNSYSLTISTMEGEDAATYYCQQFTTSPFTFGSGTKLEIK
Outgoing: 215000

Incoming: Moving on to A2-6C10 (antibody, V domains shown, mouse hybridoma antibody) VH: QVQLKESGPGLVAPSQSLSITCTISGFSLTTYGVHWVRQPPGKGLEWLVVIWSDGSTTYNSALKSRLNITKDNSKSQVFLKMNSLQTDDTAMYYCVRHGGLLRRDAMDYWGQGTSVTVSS VL: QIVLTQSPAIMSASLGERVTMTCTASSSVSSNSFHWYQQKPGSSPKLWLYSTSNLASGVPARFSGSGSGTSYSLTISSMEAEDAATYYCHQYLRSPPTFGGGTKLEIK
Outgoing: 260000

Incoming: Moving on to A-15B08 (antibody, V domains shown, mouse hybridoma antibody; also called A-15B08 (hybridoma)) VH: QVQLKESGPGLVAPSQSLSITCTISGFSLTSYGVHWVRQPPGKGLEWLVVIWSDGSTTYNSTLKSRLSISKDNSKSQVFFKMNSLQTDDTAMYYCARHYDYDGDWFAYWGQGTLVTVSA VL: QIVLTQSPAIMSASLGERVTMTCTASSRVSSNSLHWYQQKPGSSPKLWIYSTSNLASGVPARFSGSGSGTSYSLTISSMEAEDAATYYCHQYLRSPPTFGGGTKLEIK
Outgoing: 328000

Incoming: Moving on to A-3A08 (antibody, V domains shown, mouse hybridoma antibody) VH: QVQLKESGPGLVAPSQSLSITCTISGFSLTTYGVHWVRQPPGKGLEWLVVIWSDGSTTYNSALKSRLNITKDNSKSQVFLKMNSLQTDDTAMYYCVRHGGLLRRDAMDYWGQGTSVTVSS VL: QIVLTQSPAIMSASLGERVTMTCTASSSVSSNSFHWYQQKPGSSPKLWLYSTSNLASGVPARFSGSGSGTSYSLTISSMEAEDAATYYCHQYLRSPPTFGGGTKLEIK
Outgoing: 244000

Value source: patent US20240279345A1
